System: HIV-1 48V54V82A
Assay: microbe, parasite or virus in culture
Type: cell-based
Conditions: Human immunodeficiency virus 1, read-out: Cell-based assay (MT-4) EC50/nM 48V54V82A
Field: EC50. Provide a value for each of the compounds that follow.
Please respond with the number in nM and leave the unit unwritten.

Entry CCOP(=O)(COc1ccc(CC2C(O)C(O)C(Cc3ccccc3)N(Cc3ccc(O)cc3)C(=O)N2Cc2ccc(O)cc2)cc1)OCC (stereo not drawn) — recorded EC50 = 128

Entry CCOP(=O)(COc1ccc(CC2C(O)C(O)C(Cc3ccc(OC)cc3)N(Cc3cccc(N)c3)C(=O)N2Cc2cccc(N)c2)cc1)OCC (stereo not drawn) — recorded EC50 = 202

Entry CCOP(=O)(CCCNC(=O)c1cccc(CN2C(=O)N(Cc3ccc4[nH]nc(N)c4c3)C(Cc3ccccc3)C(O)C(O)C2Cc2ccccc2)c1)OCC (stereo not drawn) [drawing 809] — recorded EC50 = 240

Entry CCOP(=O)(COCCCCN1C(=O)N(Cc2ccc3[nH]nc(N)c3c2)C(Cc2ccccc2)C(O)C(O)C1Cc1ccccc1)OCC (stereo not drawn) — recorded EC50 = 430

Entry CCOP(=O)(COCCCN1C(=O)N(Cc2ccc3[nH]nc(N)c3c2)C(Cc2ccccc2)C(O)C(O)C1Cc1ccccc1)OCC (stereo not drawn) — recorded EC50 = 175

Entry CCOP(=O)(COc1ccc(CC2C(O)C(O)C(Cc3ccccc3)N(Cc3cccc(N)c3)C(=O)N2Cc2cccc(N)c2)cc1)OCC (stereo not drawn) — recorded EC50 = 168

----------
Biological target: 84V90M HIV protease (Human immunodeficiency virus type 1 group M subtype B, UniProt P04585, I572V/L578M)
Test: biochemical
Set-up: species or system HIV-1
Readout Kind: pIC50
Answer as the number alone; pIC50 is minus log10 of concentration in mol/L.

Entry CCOP(=O)(COc1ccc(CC2C(O)C(O)C(Cc3ccccc3)N(Cc3ccccc3)C(=O)N2Cc2ccccc2)cc1)OCC (centres unmarked) — recorded pIC50 = 7.32

Entry Nc1n[nH]c2ccc(CN3C(=O)N(Cc4ccc(OCP(=O)(O)O)cc4)C(Cc4ccccc4)C(O)C(O)C3Cc3ccccc3)cc12 (centres unmarked) [p-OCH2PO3H2] — recorded pIC50 = 5.78

Entry Nc1n[nH]c2ccc(CN3C(=O)N(Cc4cccc(C(=O)O)c4)C(Cc4ccccc4)C(O)C(O)C3Cc3ccccc3)cc12 (centres unmarked) — recorded pIC50 = 7.57

Entry Nc1n[nH]c2ccc(CN3C(=O)N(Cc4cccc(OCP(=O)(O)O)c4)C(Cc4ccccc4)C(O)C(O)C3Cc3ccccc3)cc12 (centres unmarked) [m-OCH2PO3H2] — recorded pIC50 = 7.48

Entry O=C(O)c1cccc(CN2C(=O)N(Cc3ccc(O)cc3)C(Cc3ccccc3)C(O)C(O)C2Cc2ccccc2)c1 (centres unmarked) — recorded pIC50 = 6.76

Entry CCOP(=O)(COc1ccc(CC2C(O)C(O)C(Cc3ccc(OC)cc3)N(Cc3cccc(N)c3)C(=O)N2Cc2cccc(N)c2)cc1)OCC (centres unmarked) [OCH3, Ph-mNH2, OCH2PO3Et2] — recorded pIC50 = 7.25

Entry CCOP(=O)(COc1ccc(CC2C(O)C(O)C(Cc3ccc(O)cc3)N(Cc3ccc(O)cc3)C(=O)N2Cc2ccc(O)cc2)cc1)OCC (centres unmarked) [OH, Ph-pOH, OCH2PO3Et2] — recorded pIC50 = 7.74

Entry CCOP(=O)(CCCNC(=O)c1cccc(CN2C(=O)N(Cc3ccc4[nH]nc(N)c4c3)C(Cc3ccccc3)C(O)C(O)C2Cc2ccccc2)c1)OCC (centres unmarked) [drawing 809] — recorded pIC50 = 8.00

----------
Field: EC50. Provide a value for each of the compounds that follow.
System: WT HIV-1
Experiment: microbe, parasite or virus in culture
Assay type: cell-based
Details: read-out: Cell-based assay (MT-4) EC50/nM WT
Please respond with the number in nM and leave the unit unwritten.

Entry CCOC(=O)C(C)NP(=O)(COc1cccc(CN2C(=O)N(Cc3ccc4[nH]nc(N)c4c3)C(Cc3ccccc3)C(O)C(O)C2Cc2ccccc2)c1)NC(C)C(=O)OCC (stereo not drawn) — recorded EC50 = 5620

Entry CCOP(=O)(COc1ccc(CC2C(O)C(O)C(Cc3ccc(OC)cc3)N(Cc3ccc(O)cc3)C(=O)N2Cc2ccc(O)cc2)cc1)OCC (stereo not drawn) — recorded EC50 = 29

Entry CCCCOC(=O)C(C)NP(=O)(COc1cccc(CN2C(=O)N(Cc3ccc4[nH]nc(N)c4c3)C(Cc3ccccc3)C(O)C(O)C2Cc2ccccc2)c1)NC(C)C(=O)OCCCC (stereo not drawn) — recorded EC50 = 1080

----------
Biological target: 84V90M HIV protease (Human immunodeficiency virus type 1 group M subtype B, UniProt P04585, I572V/L578M)
Assay: biochemical
Set-up: species or system HIV-1
Lab note: compare IC50 with 60 nM, writing Yes if less and No if equal or more.

Lab log: compare recorded IC50 with 60 nM; is it strictly lower for Nc1n[nH]c2ccc(CN3C(=O)N(Cc4cccc(OCP(=O)(Oc5ccccc5)Oc5ccccc5)c4)C(Cc4ccccc4)C(O)C(O)C3Cc3ccccc3)cc12 (stereo not drawn) ?
Yes

Lab log: compare recorded IC50 with 60 nM; is it strictly lower for O=C1N(Cc2ccccc2)[C@H](Cc2ccccc2)[C@H](O)[C@@H](O)[C@@H](Cc2ccccc2)N1Cc1ccc2[nH]ncc2c1 [reference compound] ?
Yes

Lab log: compare recorded IC50 with 60 nM; is it strictly lower for CCOP(=O)(COCCCN1C(=O)N(Cc2ccc3[nH]nc(N)c3c2)C(Cc2ccccc2)C(O)C(O)C1Cc1ccccc1)OCC (stereo not drawn) ?
No

Lab log: compare recorded IC50 with 60 nM; is it strictly lower for Nc1n[nH]c2ccc(CN3C(=O)N(Cc4cccc(OCP(=O)(O)Oc5ccccc5)c4)C(Cc4ccccc4)C(O)C(O)C3Cc3ccccc3)cc12 (stereo not drawn) ?
No

Lab log: compare recorded IC50 with 60 nM; is it strictly lower for Nc1n[nH]c2ccc(CN3C(=O)N(CCCCOCP(=O)(O)O)C(Cc4ccccc4)C(O)C(O)C3Cc3ccccc3)cc12 (stereo not drawn) ?
No

Lab log: compare recorded IC50 with 60 nM; is it strictly lower for CCOP(=O)(COCCCCN1C(=O)N(Cc2ccc3[nH]nc(N)c3c2)C(Cc2ccccc2)C(O)C(O)C1Cc1ccccc1)OCC (stereo not drawn) ?
No

----------
Biological target: recombinant HIV-1 protease (Human immunodeficiency virus type 1 group M subtype B, UniProt P04585)
Construct: Enzyme: recombinant HIV-1 protease expressed in E.Coli; purchased Bachem California, Inc. H-9040; host or cells: E. coli
Test: biochemical
Conditions: Ki (nM)
Readout Kind: Ki

Entry Nc1n[nH]c2ccc(CN3C(=O)N(Cc4ccc(OCP(=O)(O)O)cc4)C(Cc4ccccc4)C(O)C(O)C3Cc3ccccc3)cc12 (centres unmarked) [p-OCH2PO3H2] — recorded Ki = > 5 nM

Entry Nc1n[nH]c2ccc(CN3C(=O)N(Cc4cccc(OCP(=O)(O)O)c4)C(Cc4ccccc4)C(O)C(O)C3Cc3ccccc3)cc12 (centres unmarked) [m-OCH2PO3H2] — recorded Ki = 0.254 nM

----------
System: WT HIV-1
Experiment: microbe, parasite or virus in culture
Type: cell-based
Conditions: Human immunodeficiency virus 1, read-out: Cell-based assay (MT-4) EC50/nM WT
Readout Kind: EC50

Entry Nc1n[nH]c2ccc(CN3C(=O)N(Cc4cccc(OCP(=O)(Oc5ccccc5)Oc5ccccc5)c4)C(Cc4ccccc4)C(O)C(O)C3Cc3ccccc3)cc12 (stereo not drawn) [m-OCH2PO3Ph2] — recorded EC50 = 1350 nM

Entry Nc1n[nH]c2ccc(CN3C(=O)N(Cc4ccc(OCP(=O)(O)O)cc4)C(Cc4ccccc4)C(O)C(O)C3Cc3ccccc3)cc12 (stereo not drawn) [p-OCH2PO3H2] — recorded EC50 = > 12000 nM

Entry CCOP(=O)(CCCNC(=O)c1cccc(CN2C(=O)N(Cc3ccc4[nH]nc(N)c4c3)C(Cc3ccccc3)C(O)C(O)C2Cc2ccccc2)c1)OCC (stereo not drawn) [drawing 809] — recorded EC50 = 188 nM

Entry Nc1n[nH]c2ccc(CN3C(=O)N(Cc4cccc(OCP(=O)(O)O)c4)C(Cc4ccccc4)C(O)C(O)C3Cc3ccccc3)cc12 (stereo not drawn) [m-OCH2PO3H2] — recorded EC50 = > 12000 nM

Entry Nc1n[nH]c2ccc(CN3C(=O)N(Cc4cccc(OCP(=O)(O)Oc5ccccc5)c4)C(Cc4ccccc4)C(O)C(O)C3Cc3ccccc3)cc12 (stereo not drawn) [m-OCH2PO3HPh] — recorded EC50 = 1740 nM

Entry CCOP(=O)(COCCCN1C(=O)N(Cc2ccc3[nH]nc(N)c3c2)C(Cc2ccccc2)C(O)C(O)C1Cc1ccccc1)OCC (stereo not drawn) [OCH2PO3Et2] — recorded EC50 = 356 nM

----------
Biological target: recombinant HIV-1 protease (Human immunodeficiency virus type 1 group M subtype B, UniProt P04585)
Construct: Enzyme: recombinant HIV-1 protease expressed in E.Coli; purchased Bachem California, Inc. H-9040; host or cells: E. coli
Assay: biochemical
Details: class symbols, Table 10
Readout Kind: Ki

CC(C)CN(CC(O)C(Cc1ccc(OCP(=O)(NC(C)C(=O)OC(C)C)Oc2ccccc2)cc1)NC(=O)OC1CCOC1)S(=O)(=O)c1ccc(N)cc1 (stereo not shown) [drawing 697 R1=OPh R2=Ala-iPr]    + +
COc1ccc(S(=O)(=O)N(CC(C)C)CC(O)C(Cc2ccc(NCP(=O)(NC(C)C(=O)OC(C)C)Oc3ccccc3)cc2)NC(=O)OC2COC3OCCC23)cc1 (stereo not shown) [drawing 662]    + + +
COc1ccc(S(=O)(=O)N(CC(C)C)CC(O)C(Cc2ccc(NCP(=O)(NC(C)C(=O)OC(C)C)Oc3ccccc3)cc2)NC(=O)OC2COC3OCCC23)cc1 (stereo not shown) [drawing 660]    + +
COc1ccc(S(=O)(=O)N(CC(C)C)CC(O)C(Cc2ccc(NCP(=O)(NC(C)C(=O)OC(C)C)Oc3ccccc3)cc2)NC(=O)OC2COC3OCCC23)cc1 (stereo not shown) [drawing 661]    + +
